Reference for the values: patent US20250011468A1

As shown below, each of these binders has a reported FXa generation rate at 100 nM mAb value.
target: human plasma-derived FIXa (Haematologic Technologies Inc) (human, UniProt P00740 47-191; P00740 227-461); test: cell-based or functional assay
Sequence (P00740 47-191, chain 1 of 2): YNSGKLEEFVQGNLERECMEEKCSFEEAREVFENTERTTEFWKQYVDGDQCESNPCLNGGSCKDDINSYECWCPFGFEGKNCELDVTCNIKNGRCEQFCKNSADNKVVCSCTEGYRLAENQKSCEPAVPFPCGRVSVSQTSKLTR
Sequence (P00740 227-461, chain 2 of 2): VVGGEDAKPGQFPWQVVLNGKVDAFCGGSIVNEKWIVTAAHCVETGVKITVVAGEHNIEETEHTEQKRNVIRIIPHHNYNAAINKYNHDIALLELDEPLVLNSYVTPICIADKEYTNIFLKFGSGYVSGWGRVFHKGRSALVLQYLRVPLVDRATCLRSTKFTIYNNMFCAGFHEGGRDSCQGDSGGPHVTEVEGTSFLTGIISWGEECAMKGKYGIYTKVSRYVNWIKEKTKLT
Response body: numeric value in pM/min, unit text excluded.

binder	FXa generation rate at 100 nM mAb, pM/min
mAb1-4857 (antibody, V domains shown) VH: EVQLVESGGGLVQPGRSLKLSCAASGFTFDDYAMHWVRQVPGKGLEWVSGISWRGDIIGYVDSVKGRFTISRDNAKNSLYLQLNSLRAEDTALYYCVKSYGSGSFYNAFDSWGQGTLVTVSS VL: DIQMTQSPSTLSASAGDRVTITCRASQSISSWLAWYQQKPGKAPKFLIYKASRLERGVPSRFSGSGSGTEFSLTISSLQPDDFATYYCLEYSSYIRTFGQGTKVEIK	1260
mAb1-4707 (antibody, V domains shown) VH: EVQLVESGGGLVQPGRSLRLSCAASGFTFGDYAMHWVRQAPGKGLEWVSGISWVSGSIGYARSVKGRFTISRDNAKNSLYLQMNSLRAEDTALYYCAKGQYDEDAGMDVWGQGTTVTVSS VL: DIQMTQSPSSLSASVGDRVTITCRASQSIRSYLNWYQQKPGKAPKLLIYAASSLQSGVPSRFSGSGSGTDFTLTISSLQPEDFATYYCQQGYPTWTFGGGTKVEIK	581

Next:
Name the recorded FXa generation rate at 100 nM mAb of the binder listed here: mAb1-4624 (antibody, V domains shown) VH: EVQLVQSGAEVKKPGESLRISCKGSGYRFTSYWIGWVRQMPGKGLEWMGMIDPTDSYTDYGPSFRGHVTISADKSISTAYLQWSSLKASDTAMYYCARVRIMSGAFDIWGQGTMVTVSS VL: DIVMTQSPLSLPVTPGEPASISCRSSQSLLHSTWYNYLNWYLQKPGQSPQLLIYLGSNRASGVPDRFSGSGSGTDFTLKISRVEAEDVGVYYCMQVLHIPYTFGQGTKLEIK
1000
